# measurement target: IGF-1 (human, UniProt P05019)
# Sequence (P05019 49-118): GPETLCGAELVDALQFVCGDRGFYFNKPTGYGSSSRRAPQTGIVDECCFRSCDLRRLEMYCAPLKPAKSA
# procedure summary: competition, IGF-1 phage vs IGFBP-3
Bridge positions count the residues as written; N and C are the ends. Ends that are not written are not given here.
Listed here: items and their measured IC50.
All answers are understood in µM, so give the number only.

Here's what some known entries look like.
| binder | output unit | IC50 |
| --- | --- | --- |
| FECLTSVEALRGCMYG (disulfide 3-13 (inferred)) [F1-3] | µM | 12.8 |
| MDCLASVEALKWCMYG (disulfide 3-13 (inferred)) [F1-2] | µM | 9.2 |

Then there is this binder:
Supply measured IC50 of RNCFESVAALRRCMYG (disulfide 3-13 (inferred)) [F1-1] in your reply.
2.93
